Exercise: for every item that follows, state its recorded pKd.
# MEASURED_ON: T1, extracellular domain (ECD) of human TrkA protein, N-terminal flag tag and C-terminal His tag (PHA) (human, UniProt P04629 33-423)
# T1 construct: Made in 293-F cells and purified by IMAC; also called TrkA ECD protein; TrkA (ECD); not shown: flag tag at the N-terminus (after the signal peptide); His tag at the C-terminus
# EXPERIMENT_DESCRIPTION: SPR (BIAcore T200), antibody on protein G chip, PHA 0.625-20 nM injected
Answers are plain numbers, as −log10 of the molar value.

Lab note: each binder below needs its pKd filled in.
1. PHD48 (antibody, V domains shown, also called full-length PHD48 antibody) VH: QVQLVQSGAEVKKPGASVKVSCKASGYTFTTYWMHWVRQAPGQGLEWIGTIYPGNSDSSNAQKFQGRVTLTRDTSTSTAYMELSSLRSEDTAVYYCTRFYYEDWYFDVWGQGTTVTVSS VL: DIQMTQSPSSLSASVGDRVTITCRASSSVSYLYWFQQKPGKAPKPLIYRTSNLASGVPSRFSGSGSGTDYTLTISSLQPEDFATYYCQQYHSYPPTFGGGTKVEIK
2. PHD48-08 (antibody, IgG4, V domains shown) VH: QVQLVQSGAEVKKPGASVKVSCKASGYTFTTYWMHWVRQAPGQGLEWIGTIYPGNSDSSNAQKFQGRVTLTADTSTSTAYMELSSLRSEDTAVYYCTRFYYEDWYFDVWGQGTTVTVSS VL: DIQMTQSPSSLSASVGDRVTITCRASSSVSYLYWFQQKPGKAPKPLIYRTSNLASGVPSRFSGSGSGTDYTLTISSLQPEDFATYYCQQYHSYPPTFGGGTKVEIK
3. chi-PHD48 (the chimeric antibody derived from muPHD48) (antibody, V domains shown, Chimeric: VH in the pCDNA3.4-hIgG4 vector and VL in the pCDNA3.4-hKappa vector (human IgG4 / human kappa constant regions)) VH: EVQLQQSGTVLARPGASVKMSCKASGYSFTTYWMHWVKQRPGQGLEWIGTIYPGNSDSSNNQKFKGKAKLTAVTSASTAYMELSSLTNEDSAVYYCTRFYYEDWYFDVWGAGTTVTVSS VL: QIVLTQSPAIMSASPGEKVTISCSASSSVSYMYWFQQKPGSSPKPWIYRTSNLASGVPARFSGSGSGTSYSLTISSMEAEDAATYYCQQYHSYPPTFGGGTKLEIK

Data returned:
8.73
8.56
8.39

Data request: What does the record list as pKd for PHD48-01 (humanized muPHD48) (antibody, human IgG4, V domains shown) VH: QVQLVQSGAEVKKPGASVKVSCKASGYSFTTYWMHWVRQAPGQGLEWIGTIYPGNSDSSNNQKFKGRATLTADTSTSTAYMELSSLRSEDTAVYYCTRFYYEDWYFDVWGQGTMVTVSS VL: DIQMTQSPSSLSASVGDRVTITCSASSSVSYMYWFQQKPGKAPKPWIYRTSNLASGVPSRFSGSGSGTDYTLTISSLQPEDFATYYCQQYHSYPPTFGGGTKVEIK ?
Data returned: 8.63
